- Tested on: SNB-19 CNS
- method: NCI tumour cell line growth inhibition, 48 h
Entries and their TGI values follow.
Numeric answer only, unit µM assumed.

CSc1nc(Br)nc2c1ncn2C1CC(Oc2ccc(C)cc2)C(COc2ccc(C)cc2)O1 (stereo not given) = 73.8

For the next question, use this compound.
Any idea what TGI was measured for COc1ccc(-c2c(C(C)=O)c(C)n(C3OC(CO)C(O)C(O)C3O)c(=S)c2C#N)cc1 (stereo not given) ? 33.6

====

- System: RPMI-8226 leukemia
- method: NCI tumour cell line growth inhibition, 48 h
observable: GI50

These solved cases illustrate the format of a correct answer.
C[C@]12CC[C@@H]3c4ccc(O)cc4CC[C@H]3[C@@H]1CC[C@@H]2NS(=O)(=O)c1ccc(-c2ccccc2)cc1 = 2510 nM
C=C(C)[C@@H]1CCC[C@]2(C(=O)O)CC[C@]3(C)[C@@H](CC[C@@H]4[C@@]5(C)C/C(=C/c6ccncc6)C(=O)C(C)(C)[C@@H]5CC[C@]43C)[C@@H]12 = 1800 nM
O=[N+]([O-])c1cccc(-c2ncc(-c3ccc(Cl)cc3Cl)[nH]2)c1 = 1080 nM
N#Cc1ccc(N2Cc3cc(Cl)ccc3OC3=C2C(=O)N(Cc2ccccc2)C3=O)cc1 = 280 nM

Pending molecule:
Entry under review: C=CC[PH+](c1ccccc1)c1ccccc1.C=CC[PH+](c1ccccc1)c1ccccc1.[Cl][Pt][Cl] . Reported GI50? 3180 nM
